Test system: 931267-113-T-J1-PDC multicell spheroid viability
Experiment: Anticancer human tumor 931267-113-T-J1-PDC patient-derived colon adenocarcinoma cell line growth inhibition [PI3K]
Conditions: second compound 3.16 µM; first compound 0.0316 µM; hits give low values
Give measured viability, T/C for each item. Keep answers brief.
Answers are plain numbers, in %.

COMPOUND	REPORTED METRIC	OBSERVED MEASUREMENT
C[C@@H](NC(=O)c1ncnc(N)c1Cl)c1ncc(C(=O)Nc2cc(C(F)(F)F)c(Cl)cn2)s1 + CC(Nc1ncnc2nc[nH]c12)c1cc2cccc(Cl)c2c(=O)n1-c1ccccc1	viability, T/C	98.5
Cn1ncc(Cl)c1-c1cc(C(=O)NC(CN)Cc2cccc(F)c2)sc1Cl (configuration not stated) + CC(Nc1ncnc2nc[nH]c12)c1cc2cccc(Cl)c2c(=O)n1-c1ccccc1	viability, T/C	99.7
CC(C)n1nc(-c2ccc3oc(N)nc3c2)c2c(N)ncnc21 + CC(Nc1ncnc2nc[nH]c12)c1cc2cccc(Cl)c2c(=O)n1-c1ccccc1	viability, T/C	81.8
CCN1CCN(Cc2ccc(Nc3ncc(F)c(-c4cc(F)c5nc(C)n(C(C)C)c5c4)n3)nc2)CC1 + Cc1nc(NC(=O)N2CCCC2C(N)=O)sc1-c1ccnc(C(C)(C)C(F)(F)F)c1	viability, T/C	66.8
CCCS(=O)(=O)Nc1ccc(F)c(C(=O)c2c[nH]c3ncc(-c4ccc(Cl)cc4)cc23)c1F + CC(Nc1ncnc2nc[nH]c12)c1cc2cccc(Cl)c2c(=O)n1-c1ccccc1	viability, T/C	99.2
C#Cc1c(F)ccc2cc(O)cc(-c3ncc4c(N5CC6CCC(C5)N6)nc(OCC56CCCN5CC(F)C6)nc4c3F)c12 (configuration not stated) + CC(Nc1ncnc2nc[nH]c12)c1cc2cccc(Cl)c2c(=O)n1-c1ccccc1	viability, T/C	87.3

Now, please, on to the next compound.
Bench note: what viability, T/C did CC1(C)CCC(Nc2ncc(C(F)(F)F)c(-c3c[nH]c4c(P(C)(C)=O)c(C#N)ccc34)n2)CN1 (configuration not stated) + CC(Nc1ncnc2nc[nH]c12)c1cc2cccc(Cl)c2c(=O)n1-c1ccccc1 show? 106

---

Test system: 931267-113-T-J1-PDC multicell spheroid viability
Test: Anticancer human tumor 931267-113-T-J1-PDC cell line growth inhibition [PI3K];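 further: viability read 7 days after compound addition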
Conditions: second compound 0.1 µM; first compound 1 µM; hits give low values
Provide the reported viability, T/C of each item.

COMPOUND	viability, T/C
CCCS(=O)(=O)Nc1ccc(F)c(C(=O)c2c[nH]c3ncc(-c4ccc(Cl)cc4)cc23)c1F + COc1c(OCCCN2CCOCC2)ccc2c3n(c(=NC(=O)c4cnc(N)nc4)nc12)CCN3	85.2%
CC(Cn1ccc(-c2ccc(C#N)c(Cl)c2)n1)NC(=O)c1cc(C(C)O)[nH]n1 (centres undefined) + CC(Nc1ccc2c(c1)OCCn1cc(N3C(=O)OCC3C(F)F)nc1-2)C(N)=O	94.8%
CNC(=O)c1ccc(N2C(=S)N(c3ccc(C#N)c(C(F)(F)F)c3)C(=O)C2(C)C)cc1F + CC(Nc1ncnc2nc[nH]c12)c1cc2cccc(Cl)c2c(=O)n1-c1ccccc1	104%

List viability, T/C for every entry below, keeping the order given.
1. Cn1ncc(Cl)c1-c1cc(C(=O)NC(CN)Cc2cccc(F)c2)sc1Cl (centres undefined) + CC(Nc1ccc2c(c1)OCCn1cc(N3C(=O)OCC3C(F)F)nc1-2)C(N)=O
2. CC(Cn1ccc(-c2ccc(C#N)c(Cl)c2)n1)NC(=O)c1cc(C(C)O)[nH]n1 (centres undefined) + CC(Nc1ncnc2nc[nH]c12)c1cc2cccc(Cl)c2c(=O)n1-c1ccccc1
3. C[C@@H](NC(=O)c1ncnc(N)c1Cl)c1ncc(C(=O)Nc2cc(C(F)(F)F)c(Cl)cn2)s1 + Cc1nc(NC(=O)N2CCCC2C(N)=O)sc1-c1ccnc(C(C)(C)C(F)(F)F)c1
4. CC1(C)CCC(CN2CCN(c3ccc(C(=O)NS(=O)(=O)c4ccc(NCC5CCOCC5)c([N+](=O)[O-])c4)c(Oc4cnc5[nH]ccc5c4)c3)CC2)=C(c2ccc(Cl)cc2)C1 + CC(Nc1ncnc2nc[nH]c12)c1cc2cccc(Cl)c2c(=O)n1-c1ccccc1
5. CC1(C)CCC(CN2CCN(c3ccc(C(=O)NS(=O)(=O)c4ccc(NCC5CCOCC5)c([N+](=O)[O-])c4)c(Oc4cnc5[nH]ccc5c4)c3)CC2)=C(c2ccc(Cl)cc2)C1 + COc1c(OCCCN2CCOCC2)ccc2c3n(c(=NC(=O)c4cnc(N)nc4)nc12)CCN3
6. CC(C)NCC(C(=O)N1CCN(c2ncnc3c2C(C)CC3O)CC1)c1ccc(Cl)cc1 (centres undefined) + CC(Nc1ncnc2nc[nH]c12)c1cc2cccc(Cl)c2c(=O)n1-c1ccccc1

["75.1%", "108%", "111%", "106%", "65.1%", "98.8%"]

---

Tested on: 931267-113-T-J1-PDC multicell spheroid viability
Assay: Anticancer human tumor 931267-113-T-J1-PDC cell line growth inhibition [PI3K];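 further: viability read 7 days after compound addition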
Settings: second compound 0.1 µM; first compound 0.00316 µM; hits give low values
Source text: Combinatorial screen of targeted agents with the PI3K inhibitors inavolisib, alpelisib, duvelisib, and copanlisib in multi-cell type tumor spheroids A high-throughput screen of multi-cell type tumor spheroids was designed to identify active combinations of targeted small molecules and PI3K pathway inhibitors. […] Compounds. […] If the clinical Cmax for an agent had not been determined, the highest concentration tested was 10 microM. […]
REPORTED METRIC: viability, T/C

Examples from the recorded data:
MOLECULE	viability, T/C
Cn1ncnc1[C@H]1c2n[nH]c(=O)c3cc(F)cc(c23)N[C@@H]1c1ccc(F)cc1 + CC(Nc1ncnc2nc[nH]c12)c1cc2cccc(Cl)c2c(=O)n1-c1ccccc1	96%
CC(=O)c1c(C)c2cnc(Nc3ccc(N4CCNCC4)cn3)nc2n(C2CCCC2)c1=O + CC(Nc1ccc2c(c1)OCCn1cc(N3C(=O)OCC3C(F)F)nc1-2)C(N)=O	92.7%
CCN1CCN(Cc2ccc(Nc3ncc(F)c(-c4cc(F)c5nc(C)n(C(C)C)c5c4)n3)nc2)CC1 + CC(Nc1ncnc2nc[nH]c12)c1cc2cccc(Cl)c2c(=O)n1-c1ccccc1	101%
CC(C)n1nc(-c2ccc3oc(N)nc3c2)c2c(N)ncnc21 + COc1c(OCCCN2CCOCC2)ccc2c3n(c(=NC(=O)c4cnc(N)nc4)nc12)CCN3	64.4%
CC(=O)c1c(C)c2cnc(Nc3ccc(N4CCNCC4)cn3)nc2n(C2CCCC2)c1=O + CC(Nc1ncnc2nc[nH]c12)c1cc2cccc(Cl)c2c(=O)n1-c1ccccc1	110%
CC(C)n1nc(-c2ccc3oc(N)nc3c2)c2c(N)ncnc21 + CC(Nc1ncnc2nc[nH]c12)c1cc2cccc(Cl)c2c(=O)n1-c1ccccc1	92.7%

Now consider a different molecule.
Looking for the measured viability, T/C of CCN1CCN(Cc2ccc(Nc3ncc(F)c(-c4cc(F)c5nc(C)n(C(C)C)c5c4)n3)nc2)CC1 + Cc1nc(NC(=O)N2CCCC2C(N)=O)sc1-c1ccnc(C(C)(C)C(F)(F)F)c1 , can you help? 98%

---

Tested on: 931267-113-T-J1-PDC multicell spheroid viability
Experiment: Anticancer human tumor 931267-113-T-J1-PDC cell line growth inhibition [PI3K];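 further: viability read 7 days after compound addition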
Settings: second compound 0.0316 µM; first compound 0.316 µM; hits give low values
REPORTED METRIC: viability, T/C (%)
Answers are plain numbers, in %.

COMPOUND	TGT	READOUT UNIT	viability, T/C
CC(Cn1ccc(-c2ccc(C#N)c(Cl)c2)n1)NC(=O)c1cc(C(C)O)[nH]n1 (stereo not drawn) + CC(Nc1ncnc2nc[nH]c12)c1cc2cccc(Cl)c2c(=O)n1-c1ccccc1	931267-113-T-J1-PDC multicell spheroid viability	%	106
CNC(=O)c1ccc(N2C(=S)N(c3ccc(C#N)c(C(F)(F)F)c3)C(=O)C2(C)C)cc1F + CC(Nc1ncnc2nc[nH]c12)c1cc2cccc(Cl)c2c(=O)n1-c1ccccc1	931267-113-T-J1-PDC multicell spheroid viability	%	113
Cn1nccc1Nc1nccc(-c2ccn(C(CO)c3ccc(Cl)c(F)c3)c(=O)c2)n1 (stereo not drawn) + COc1c(OCCCN2CCOCC2)ccc2c3n(c(=NC(=O)c4cnc(N)nc4)nc12)CCN3	931267-113-T-J1-PDC multicell spheroid viability	%	68
C=CC(=O)N1CCN(c2nc(=O)n(-c3c(C)ccnc3C(C)C)c3nc(-c4c(O)cccc4F)c(F)cc23)C(C)C1 (stereo not drawn) + COc1c(OCCCN2CCOCC2)ccc2c3n(c(=NC(=O)c4cnc(N)nc4)nc12)CCN3	931267-113-T-J1-PDC multicell spheroid viability	%	90.4
CNC(=O)c1ccc(N2C(=S)N(c3ccc(C#N)c(C(F)(F)F)c3)C(=O)C2(C)C)cc1F + CC(Nc1ccc2c(c1)OCCn1cc(N3C(=O)OCC3C(F)F)nc1-2)C(N)=O	931267-113-T-J1-PDC multicell spheroid viability	%	96.4

I need viability, T/C for every entry listed below, if you could help.
1. CCCS(=O)(=O)Nc1ccc(F)c(C(=O)c2c[nH]c3ncc(-c4ccc(Cl)cc4)cc23)c1F + Cc1nc(NC(=O)N2CCCC2C(N)=O)sc1-c1ccnc(C(C)(C)C(F)(F)F)c1
2. CCN1CCN(Cc2ccc(Nc3ncc(F)c(-c4cc(F)c5nc(C)n(C(C)C)c5c4)n3)nc2)CC1 + Cc1nc(NC(=O)N2CCCC2C(N)=O)sc1-c1ccnc(C(C)(C)C(F)(F)F)c1
3. C[C@@H](NC(=O)c1ncnc(N)c1Cl)c1ncc(C(=O)Nc2cc(C(F)(F)F)c(Cl)cn2)s1 + COc1c(OCCCN2CCOCC2)ccc2c3n(c(=NC(=O)c4cnc(N)nc4)nc12)CCN3

121
94.3
94.7
